Tested on: NCI-H522
test-summary: NCI tumour cell line growth inhibition, 48 h
Activity calls are given as the source filed them. No stated cut-off is given here; in the data, active = GI50 up to about 1.1 µM and inactive = higher.
Some compounds, each annotated with its measured GI50.

Example entries begin here.
compound | GI50
Clc1ccc(/C=C/c2nc3ccccc3s2)cc1Cl | > 100 µM (inactive)
CSc1ccc(/C=C/C(=O)c2nc3ccccc3[nH]2)cc1 | 12.2 µM (inactive)
COc1cccc(/C=C(\NC(C)=O)c2nc3cc(Cl)ccc3[nH]2)c1 | > 100 µM (inactive)
Oc1ccncc1-c1cnccc1O | > 100 µM (inactive)

[Q] # input compound: `O=C(O)Cc1ccc2c(c1)/C(=C1/Nc3ccccc3C1=O)C(=O)N2` ; wanted: its GI50
[A] 35 µM (inactive)

[Q] Please give the result for CC(NCCN(C)C)C1CCC2C3CCc4cc(O)ccc4C3CCC12C (stereo unspecified) too.
[A] 3.2 µM (inactive)

[Q] Same read-out for `N#CC1=C(O)NC(O)=C(C#N)C1c1ccc(C2C(C#N)=C(O)NC(O)=C2C#N)cc1` ?
[A] 19.7 µM (inactive)
